Assign pIC50 to each entry below.
Tested on: normal L6 rat myoblasts
Test Protocol: MTT cell viability assay, normal L6 cells
Assay type: cell-based
Assay Conditions: Rattus norvegicus, Myoblast; 48 h treatment period; mean ± SD, n = 3; read-out: Anticancer Activity IC50, L6
// pIC50 here means minus log10 of the molar concentration (mol/L)

Note to self: pIC50 recorded for c1ccc(CN2c3ccncc3Sc3ccncc32)c(CN2c3ccncc3Sc3ccncc32)c1 was 4.66

Note to self: pIC50 recorded for c1ccc(CN2c3cnccc3Sc3cccnc32)c(CN2c3cnccc3Sc3cccnc32)c1 was 4.75

Note to self: pIC50 recorded for c1ccc(CN2c3cccnc3Sc3cccnc32)c(CN2c3cccnc3Sc3cccnc32)c1 was 4.72

Note to self: pIC50 recorded for c1ccc(CN2c3ccncc3Sc3ncccc32)c(CN2c3ccncc3Sc3ncccc32)c1 was 4.64

Note to self: pIC50 recorded for c1cc(CN2c3ccncc3Sc3ccncc32)nc(CN2c3ccncc3Sc3ccncc32)c1 was 4.55

Note to self: pIC50 recorded for COc1cccc2c1C(=O)c1c(O)c3c(c(O)c1C2=O)C[C@@](O)(C(=O)CO)C[C@@H]3O[C@H]1C[C@H](N)[C@H](O)[C@H](C)O1 [Doxorubicin, reference compound] was 5.18

Note to self: pIC50 recorded for c1cnc2c(c1)Sc1ncccc1N2Cc1ccc(CN2c3cccnc3Sc3cccnc32)cc1 was 5.72

Note to self: pIC50 recorded for c1cc(CN2c3cccnc3Sc3cccnc32)nc(CN2c3cccnc3Sc3cccnc32)c1 was 5.57

Note to self: pIC50 recorded for c1cc(CN2c3cnccc3Sc3cccnc32)nc(CN2c3cnccc3Sc3cccnc32)c1 was 4.72
